Molecular target: EGFR (Homo sapiens)
Sequence (P00533 25-1210): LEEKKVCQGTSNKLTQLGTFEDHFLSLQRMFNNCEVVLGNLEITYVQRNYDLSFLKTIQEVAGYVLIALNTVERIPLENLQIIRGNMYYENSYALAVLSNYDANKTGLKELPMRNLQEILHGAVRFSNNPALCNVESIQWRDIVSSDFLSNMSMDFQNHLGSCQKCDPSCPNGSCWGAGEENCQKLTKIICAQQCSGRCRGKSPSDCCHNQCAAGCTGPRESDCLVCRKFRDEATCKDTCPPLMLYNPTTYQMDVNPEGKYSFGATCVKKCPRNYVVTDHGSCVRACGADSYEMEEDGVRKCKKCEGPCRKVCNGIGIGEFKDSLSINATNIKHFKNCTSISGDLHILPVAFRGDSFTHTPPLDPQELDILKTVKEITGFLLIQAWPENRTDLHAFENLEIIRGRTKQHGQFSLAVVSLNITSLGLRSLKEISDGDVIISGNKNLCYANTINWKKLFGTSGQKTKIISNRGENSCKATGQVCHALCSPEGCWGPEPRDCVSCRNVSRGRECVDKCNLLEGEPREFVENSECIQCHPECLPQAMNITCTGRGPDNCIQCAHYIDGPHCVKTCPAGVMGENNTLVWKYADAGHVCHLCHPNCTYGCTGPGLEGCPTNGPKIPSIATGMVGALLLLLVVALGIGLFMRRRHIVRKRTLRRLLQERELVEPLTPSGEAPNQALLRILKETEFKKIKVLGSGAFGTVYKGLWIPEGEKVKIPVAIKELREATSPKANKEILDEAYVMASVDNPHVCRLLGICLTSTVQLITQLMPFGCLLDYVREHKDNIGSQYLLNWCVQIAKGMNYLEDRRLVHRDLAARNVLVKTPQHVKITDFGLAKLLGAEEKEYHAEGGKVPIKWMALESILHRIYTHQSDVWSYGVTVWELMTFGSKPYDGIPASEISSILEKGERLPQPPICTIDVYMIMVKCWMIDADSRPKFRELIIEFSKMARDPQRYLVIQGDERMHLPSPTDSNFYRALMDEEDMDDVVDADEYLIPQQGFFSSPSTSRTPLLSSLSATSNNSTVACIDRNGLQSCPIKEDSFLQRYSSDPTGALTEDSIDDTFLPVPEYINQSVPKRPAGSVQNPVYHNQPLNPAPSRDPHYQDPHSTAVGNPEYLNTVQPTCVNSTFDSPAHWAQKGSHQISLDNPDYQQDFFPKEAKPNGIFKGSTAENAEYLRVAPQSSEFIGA
Assay: Inhibition of a panel of kinases, in vitro HotSpot kinase assay: EGFR
Type: biochemical
Conditions: D-compounds panel data; 1 μM ATP
pIC50: −log10 of the molar value.
property_measured: pIC50

Before answering, review these 3 worked examples.
| compound | property_measured | experimental_value |
| --- | --- | --- |
| Cc1ncc(Nc2nc(N3CCC[C@@H](NC(=O)c4ccc(C5CC5)cc4F)C3)cnc2C(N)=O)s1 | pIC50 | < 5.00 |
| Cn1cc(Nc2nc(N3CCC(NC(=O)c4ccc(C5CC5)cc4)C(O)C3)cnc2C(N)=O)cn1 (single isomer, unassigned) [Example D-29] | pIC50 | < 5.00 |
| CN1CCN(c2ccc(Nc3nc(N4CCC[C@@H](n5ccc6cc(C7CC7)ccc6c5=O)C4)cnc3C(N)=O)nc2)CC1 | pIC50 | < 5.00 |

Here is the next item to consider.
Short answer please: pIC50, EGFR (Homo sapiens), entry C[C@@H]1[C@H](NC(=O)c2ccc(C(C)(C)O)nc2)CCCN1c1cnc(C(N)=O)c(Nc2cnn(C)c2)n1
6.00 to 7.00

* * *

Target: UniProt P52333
Test: Inhibition of a panel of kinases, in vitro HotSpot kinase assay: JAK3
Format: biochemical
Details: Table 10, Formula A-I; 1 μM ATP; read-out: JAK3 (IC50)
This section presents molecules with their documented IC50 values.

| molecule | assay_target | IC50 |
| --- | --- | --- |
| CN(C)c1ccc(C(=O)N[C@@H]2CCCN(c3cnc(C(N)=O)c(Nc4ccc(S(C)(=O)=O)cc4)n3)C2)cc1 [Example A-44] | UniProt P52333 | 1 to 10 µM |
| CCN1N=CC2C=C(C(=O)N[C@@H]3CCCN(c4cnc(C(N)=O)c(Nc5cc(C)ns5)n4)C3)C=CC21 (stereo partly shown) [Example A-72] | UniProt P52333 | 1 to 10 µM |
| CN(C)C(=O)N[C@@H]1CCCN(c2cnc(C(N)=O)c(Nc3ccc4ncccc4c3)n2)C1 [Example A-47] | UniProt P52333 | 1 to 10 µM |
| C=CC(=O)N[C@@H]1CCCN(c2cnc(C(N)=O)c(Nc3ccc(C4CCN(C5CCCC5)CC4)cc3)n2)C1 [Example A-84] | UniProt P52333 | < 0.1 µM |

Which IC50 reading was recorded for the molecule Cc1cc(Nc2nc(N3CCC[C@@H](NC(=O)N4Cc5ccccc5C4)C3)cnc2C(N)=O)sn1 [Example A-17] ?
0.1 to 1 µM

Param item: Cc1cccc(C(=O)N[C@@H]2CCCN(c3cnc(C(N)=O)c(Nc4ccc(C5CCN(C6CCCC6)CC5)cc4)n3)C2)c1 [Example A-8]
0.1 to 1 µM

Param item: Cc1cc(Nc2nc(N3CCC[C@@H](NC(=O)c4ccc(N)cc4)C3)cnc2C(N)=O)sn1 [Example A-25]
0.1 to 1 µM

* * *

Biological target: JAK3 (Homo sapiens)
Sequence (P52333 1-1124): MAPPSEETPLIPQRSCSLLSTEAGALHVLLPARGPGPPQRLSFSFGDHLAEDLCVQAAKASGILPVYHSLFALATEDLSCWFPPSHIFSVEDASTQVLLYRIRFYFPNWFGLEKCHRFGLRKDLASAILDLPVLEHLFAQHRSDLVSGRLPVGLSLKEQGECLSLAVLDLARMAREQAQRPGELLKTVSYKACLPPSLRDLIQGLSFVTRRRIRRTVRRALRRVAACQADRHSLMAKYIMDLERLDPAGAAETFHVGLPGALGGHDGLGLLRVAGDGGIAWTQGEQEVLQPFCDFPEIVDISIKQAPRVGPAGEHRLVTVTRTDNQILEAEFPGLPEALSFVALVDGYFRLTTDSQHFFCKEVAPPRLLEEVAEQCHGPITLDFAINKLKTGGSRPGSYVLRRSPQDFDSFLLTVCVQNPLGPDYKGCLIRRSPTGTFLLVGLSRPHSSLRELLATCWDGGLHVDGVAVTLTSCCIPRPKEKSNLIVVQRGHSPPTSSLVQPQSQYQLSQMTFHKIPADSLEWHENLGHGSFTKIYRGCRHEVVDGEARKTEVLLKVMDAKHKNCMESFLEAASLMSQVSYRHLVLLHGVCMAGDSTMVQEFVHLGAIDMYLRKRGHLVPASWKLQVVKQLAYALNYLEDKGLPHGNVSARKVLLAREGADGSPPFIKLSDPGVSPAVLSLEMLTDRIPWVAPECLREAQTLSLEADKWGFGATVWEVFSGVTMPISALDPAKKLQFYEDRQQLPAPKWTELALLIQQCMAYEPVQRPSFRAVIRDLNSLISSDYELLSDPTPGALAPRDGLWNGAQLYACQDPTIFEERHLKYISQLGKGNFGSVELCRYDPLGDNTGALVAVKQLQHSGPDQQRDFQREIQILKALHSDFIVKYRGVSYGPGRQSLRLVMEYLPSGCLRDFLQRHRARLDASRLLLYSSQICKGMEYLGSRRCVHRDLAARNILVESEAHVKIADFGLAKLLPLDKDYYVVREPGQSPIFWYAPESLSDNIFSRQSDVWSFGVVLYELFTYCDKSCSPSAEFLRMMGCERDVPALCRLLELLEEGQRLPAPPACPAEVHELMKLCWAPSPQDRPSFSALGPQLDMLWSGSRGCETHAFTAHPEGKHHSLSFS
Assay: Inhibition of a panel of kinases, in vitro HotSpot kinase assay: JAK3
Type: biochemical
Conditions: E compounds, Table 17; read-out: IC50 JAK3
This section presents compounds with their documented IC50 values.

| mol | IC50 |
| --- | --- |
| C=CC(=O)N1CCC[C@@H](N(C)c2cnc(C(N)=O)c(Nc3ccc(C(C)C)cc3)n2)C1 | 10 to 100 nM |
| C=CC(=O)N1CC[C@@H](N(C)c2cnc(C(N)=O)c(Nc3ccc(C4CCN(C5CC5)CC4)cc3)n2)C1 | < 10 nM |
| C[C@@H]1[C@H](NC(=O)c2ccc(-c3ncco3)cc2)CCCN1c1cnc(C(N)=O)c(Nc2cnn(C)c2)n1 | 100 to 1000 nM |

Here is the next item to consider.
Short answer please: IC50, JAK3 (Homo sapiens), entry C[C@@H]1[C@H](NC(=O)c2ccc(C3CC3)cc2)CCCN1c1cnc(C(N)=O)c(Nc2ccc(N3CCN(C4COC4)C[C@@H]3C)cc2)n1
1000 to 10000 nM

* * *

Biological target: EGFR (Homo sapiens)
Assay: Inhibition of a panel of kinases, in vitro HotSpot kinase assay: EGFR
Format: biochemical
Conditions: D-compounds panel data; 1 μM ATP
property_measured: IC50

Before answering, review these 3 worked examples.
| mol | experimental_value |
| --- | --- |
| C[C@@H]1[C@H](NC(=O)c2cnc(C(C)(C)C)s2)CCCN1c1cnc(C(N)=O)c(Nc2cnn(C)c2)n1 | 100 to 1000 nM |
| CN(C)C(=O)N[C@@H]1CCCN(c2cnc(C(N)=O)c(Nc3ccc(C4(C)CCN(C5CCCC5)CC4)cc3)n2)[C@H]1CO | 1000 to 10000 nM |
| C[C@@H]1[C@H](NC(=O)N(C)C)CCCN1c1cnc(C(N)=O)c(Nc2ccc(N3CCN(C)CC3)cn2)n1 | 1000 to 10000 nM |

Short answer please: IC50, EGFR (Homo sapiens), entry Cc1csc(Nc2nc(N3CCC[C@@H](NC(=O)c4ccc(C5CC5)cc4F)[C@H]3C)cnc2C(N)=O)n1
> 10000 nM

* * *

Biological target: BTK-WT (Homo sapiens)
Construct: purified from insect cells as a full-length construct containing an N-terminal 6X-His tag; His6 (N); made in house; host or cells: insect cells (baculovirus Sf21 in Method B)
Sequence (Q06187 whole entry): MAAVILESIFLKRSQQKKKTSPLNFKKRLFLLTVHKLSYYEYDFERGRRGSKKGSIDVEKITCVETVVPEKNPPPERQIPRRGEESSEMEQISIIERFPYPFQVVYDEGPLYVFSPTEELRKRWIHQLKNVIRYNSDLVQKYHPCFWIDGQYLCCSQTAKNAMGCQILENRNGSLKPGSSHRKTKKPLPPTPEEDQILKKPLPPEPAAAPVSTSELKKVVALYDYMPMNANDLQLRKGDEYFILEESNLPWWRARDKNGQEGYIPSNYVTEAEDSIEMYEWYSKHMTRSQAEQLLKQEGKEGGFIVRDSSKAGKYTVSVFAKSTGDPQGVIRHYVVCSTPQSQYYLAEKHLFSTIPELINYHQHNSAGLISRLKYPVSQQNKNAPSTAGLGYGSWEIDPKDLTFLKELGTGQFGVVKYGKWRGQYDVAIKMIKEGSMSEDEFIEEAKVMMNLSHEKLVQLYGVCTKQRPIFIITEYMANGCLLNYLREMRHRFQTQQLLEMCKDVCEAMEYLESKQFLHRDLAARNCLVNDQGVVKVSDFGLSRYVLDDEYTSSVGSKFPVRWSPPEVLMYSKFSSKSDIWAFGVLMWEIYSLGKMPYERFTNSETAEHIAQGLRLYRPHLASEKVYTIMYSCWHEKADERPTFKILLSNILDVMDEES
Test: Btk in vitro inhibitory activity (one of Method A TR-FRET, Method B electrophoretic mobility shift, Method C radiometric filter binding)
Type: biochemical
Conditions: D-compounds panel data; read-out: IC50 BTK-WT
pIC50: −log10 of the molar value.
property_measured: pIC50

Before answering, review these 4 worked examples.
| molecule | assay_target | property_measured | experimental_value |
| --- | --- | --- | --- |
| Cc1cc(Nc2nc(N3CCC[C@@H](NC(=O)c4ccc(C5CC5)cc4F)C3)cnc2C(N)=O)on1 | BTK-WT (Homo sapiens) | pIC50 | 6.00 to 7.00 |
| C[C@@H]1[C@H](NC(=O)c2cnc(C(C)(C)C)s2)CCCN1c1cnc(C(N)=O)c(Nc2cnn(C)c2)n1 | BTK-WT (Homo sapiens) | pIC50 | ≥ 8.00 |
| Cc1cc2cc(C(=O)N[C@@H]3CCCN(c4cnc(C(N)=O)c(Nc5cnn(C)c5)n4)[C@@H]3C)ccc2o1 | BTK-WT (Homo sapiens) | pIC50 | ≥ 8.00 |
| Cn1cc(Nc2nc(N3C4CCC(NC(=O)c5ccc(C6CC6)cc5)C3CC4)cnc2C(N)=O)cn1 (single isomer, unassigned) [Example D-199] | BTK-WT (Homo sapiens) | pIC50 | 5.00 to 6.00 |

Which pIC50 reading was recorded for the molecule C[C@@H]1[C@H](NC(=O)c2ccc(C(C)(C)O)c(F)c2)CCCN1c1cnc(C(N)=O)c(Nc2cnn(C)c2)n1 ?
≥ 8.00

Param item: C[C@@H]1[C@H](NC(=O)c2ccc(C3CC3)cc2F)CCCN1c1cnc(C(N)=O)c(Nc2ccc(C3(C)CCN(C4CC4)CC3)cc2)n1
≥ 8.00
